Listed here are compounds together with their documented pest or weed control at 140 g/ha.
Tested on: test plant species
EXPERIMENT_SUMMARY: Post-emergent herbicidal activity test (greenhouse, foliar spray, visual growth reduction)
Type: in vivo
REPORTED_CONDITIONS: post-emergence, 336 h, ECHCG: barnyardgrass (Echinochloa crus-galli), 140 g ai/ha, 14 days after application, read-out: Visual Growth Reduction (%) 14 Days After Application, ECHCG

# COMPOUND, STUDY_SYSTEM, READING
records = [
    ("COC(=O)c1nc(-c2ncc(Cl)cc2Cl)ccc1Cl", "test plant species", "75 to 84%"),
    ("COC(=O)c1nc(-c2cccc3c2OC(F)(F)O3)ccc1Cl", "test plant species", "0 to 29%"),
    ("COC(=O)c1nc(-c2ccc(C3(C#N)CC3)cc2Cl)ccc1Cl", "test plant species", "0 to 29%"),
    ("COC(=O)c1nc(-c2ccc(Cl)c(N(C)C)c2)ccc1Cl", "test plant species", "0 to 29%"),
    ("COC(=O)c1nc(-c2ccc([S+](C)[O-])cc2)c(F)cc1Cl (stereo not shown)", "test plant species", "0 to 29%"),
    ("COC(=O)c1nc(-c2ccc(C(F)(F)F)c(Br)c2Cl)c(F)cc1Cl", "test plant species", "0 to 29%"),
    ("O=C(O)c1nc(-c2ccc(C(F)(F)F)c(F)c2)ccc1Cl", "test plant species", "0 to 29%"),
    ("O=C(O)c1nc(-c2nc(Cl)c(C(F)(F)F)cc2Cl)ccc1Cl", "test plant species", "95 to 100%"),
]

Q. Report measured pest or weed control at 140 g/ha; entry is COC(=O)c1nc(-c2ccc(SC(F)(F)F)cc2Cl)c(Cl)cc1Cl
A. 0 to 29%

Q. Give the value of pest or weed control at 140 g/ha reported for the following: COC(=O)c1nc(-c2cccc(Cl)c2F)ccc1Cl
A. 0 to 29%

###

Attribute: pest or weed control at 140 g/ha
Test system: test plant species
EXPERIMENT_SUMMARY: Post-emergent herbicidal activity test (greenhouse, foliar spray, visual growth reduction)
Type: in vivo
REPORTED_CONDITIONS: post-emergence, 336 h, SETFA: giant foxtail (Setaria faberi), 140 g ai/ha, 14 days after application, read-out: Visual Growth Reduction (%) 14 Days After Application, SETFA

# STRUCTURE_SMILES, READING
records = [
    ("COC(=O)c1nc(-c2ccc(OC(C)(C)C)cc2Cl)ccc1Cl", "0 to 29%"),
    ("COC(=O)c1nc(-c2ccc(C(F)(F)F)cc2Cl)c(F)c(OC)c1Cl", "0 to 29%"),
    ("CSc1cc(-c2nc(C(=O)O)c(Cl)cc2F)c(Cl)cc1C(F)(F)F", "30 to 44%"),
]

Q. Report measured pest or weed control at 140 g/ha on test plant species; entry: O=C(O)c1nc(-c2ncc(C(F)(F)F)cc2Cl)ccc1Cl
A. 95 to 100%

Q. Param request: pest or weed control at 140 g/ha | system test plant species | item COC(=O)c1nc(-c2ccc(OC(F)(F)F)cc2Cl)c(F)cc1Cl
A. 85 to 94%

###

Test system: test plant species
EXPERIMENT_SUMMARY: Post-emergent herbicidal activity test (greenhouse, foliar spray, visual growth reduction)
Assay type: in vivo
REPORTED_CONDITIONS: post-emergence, 336 h, IPOHE: ivy-leaf morning glory (Ipomoea hederacea), 140 g ai/ha, 14 days after application, read-out: Visual Growth Reduction (%) 14 Days After Application, IPOHE
PROPERTY_NAME: pest or weed control at 140 g/ha

# STRUCTURE_SMILES, pest or weed control at 140 g/ha
rows = [
    ("COC(=O)c1nc(-c2cc3c(cc2F)OC(F)(F)O3)c(Cl)cc1Cl", "95 to 100%"),
    ("COC(=O)c1nc(-c2cc(C)c(C)cc2Cl)ccc1Cl", "0 to 29%"),
    ("COC(=O)c1nc(-c2cc3c(cc2Cl)OCO3)ccc1Cl", "75 to 84%"),
    ("COC(=O)c1nc(-c2ccc(C(F)(F)F)c(C)c2Cl)ccc1Cl", "95 to 100%"),
]

Now look at this one.
Q. Identify measured pest or weed control at 140 g/ha associated with COC(=O)c1nc(-c2ccc(C(F)(F)F)c(Br)c2Cl)c(F)cc1Cl
A. 95 to 100%

###

Tested on: test plant species
EXPERIMENT_SUMMARY: Post-emergent herbicidal activity test (greenhouse, foliar spray, visual growth reduction)
Format: in vivo
REPORTED_CONDITIONS: post-emergence, 336 h, KCHSC: kochia (Bassia scoparia), 140 g ai/ha, 14 days after application, read-out: Visual Growth Reduction (%) 14 Days After Application, KCHSC
PROPERTY_NAME: pest or weed control at 140 g/ha

Take a look at these entries with their results.
# STRUCTURE_SMILES, READING
measured = [
    ("COc1cc2c(cc1-c1ccc(Cl)c(C(=O)O)n1)OC(F)(F)O2", "0 to 29%"),
    ("COC(=O)c1nc(-c2cc(Br)c(C(F)(F)F)cc2Cl)ccc1Cl", "45 to 59%"),
    ("COC(=O)c1nc(-c2cc3nonc3cc2F)c(Cl)cc1Cl", "0 to 29%"),
    ("COC(=O)c1nc(-c2c(Cl)cc(C(F)(F)F)cc2I)ccc1Cl", "75 to 84%"),
    ("COC(=O)c1nc(-c2ccc(Cl)c(C)c2Cl)ccc1Cl", "45 to 59%"),
]

Q. Report pest or weed control at 140 g/ha for COC(=O)c1nc(-c2ccc(C(F)(F)F)cc2Cl)cc(C)c1Cl
A. 0 to 29%

Q. Quote pest or weed control at 140 g/ha reported for COC(=O)c1nc(-c2ccc(C(F)(F)F)c(C)c2Cl)ccc1Cl please.
A. 45 to 59%

Q. Complete the entry with pest or weed control at 140 g/ha for COC(=O)c1nc(-c2cc(Cl)c(C#N)cc2Cl)ccc1Cl
A. 0 to 29%

Q. Specify pest or weed control at 140 g/ha for COC(=O)c1nc(-c2ccc(C(F)(F)F)cc2Cl)ncc1Cl and stop.
A. 60 to 74%

Q. For the compound O=C(O)c1nc(-c2ccc(C(F)(F)F)cc2Cl)ccc1Cl , give its measured pest or weed control at 140 g/ha value.
A. 85 to 94%

###

Test system: test plant species
EXPERIMENT_SUMMARY: Post-emergent herbicidal activity test (greenhouse, foliar spray, visual growth reduction)
Assay type: in vivo
REPORTED_CONDITIONS: post-emergence, 336 h, redroot pigweed (Amaranthus retroflexus), 14 Days After Application, 140 g ai/ha, read-out: Visual Growth Reduction (%) AMARE
Entries and their measured pest or weed control at 140 g/ha follow.

Example results:
# COMPOUND, pest or weed control at 140 g/ha
data = [
    ("COC(=O)c1nc(-c2ccc(C(F)(F)F)c(N)c2Cl)ccc1Cl [F212]", "60 to 74%"),
    ("COC(=O)c1nc(-c2ccc(S(C)(=O)=O)cc2F)c(F)cc1Cl [F379]", "60 to 74%"),
    ("COC(=O)c1nc(-c2ccc3ccsc3c2F)ccc1Cl [F260]", "0 to 29%"),
]

Q. Give pest or weed control at 140 g/ha for the following compound: CCCCOC(=O)c1nc(-c2ccc(Cl)c(OC)c2F)ccc1Cl [F280]
A. 30 to 44%

Q. Return the recorded pest or weed control at 140 g/ha value; entry: COC(=O)c1nc(-c2cc3nonc3cc2Cl)ccc1Cl [F261]
A. 0 to 29%

###

Property: pest or weed control at 140 g/ha; scope: individual compounds
Tested on: test plant species
EXPERIMENT_SUMMARY: Post-emergent herbicidal activity test (greenhouse, foliar spray, visual growth reduction)
Assay type: in vivo
REPORTED_CONDITIONS: post-emergence, 336 h, SORVU: grain sorghum (Sorghum vulgare), 140 g ai/ha, 14 days after application, read-out: Visual Growth Reduction (%) 14 Days After Application, SORVU

Past entries and their recorded results:
# STRUCTURE_SMILES, pest or weed control at 140 g/ha
rows = [
    ("C=Cc1cc(C(F)(F)F)cc(Cl)c1-c1ccc(Cl)c(C(=O)O)n1", "75 to 84%"),
    ("CCOc1c(Cl)ccc(-c2ccc(Cl)c(C(=O)OC)n2)c1Cl", "0 to 29%"),
    ("COC(=O)c1nc(-c2ccc(SC(F)(F)F)cc2Cl)c(Cl)cc1Cl", "30 to 44%"),
    ("CCCCOc1c(Cl)ccc(-c2ccc(Cl)c(C(=O)OC)n2)c1F", "0 to 29%"),
]

Next compound, pest or weed control at 140 g/ha to be filled in.
Q. Specify reported pest or weed control at 140 g/ha for the compound shown: COC(=O)c1nc(-c2ccc(SC)cc2)c(F)cc1Cl
A. 0 to 29%
